SYSTEM NAME: cyclin E/CDK2 enzyme (Homo sapiens)
Construct: made in house; host or cells: Sf9 insect cells, recombinant baculovirus
ASSAY PROCEDURE: CDK2 ELISA kinase assay (phospho-Rb ser 795 detection)
Type: biochemical
EXPERIMENTAL CONTEXT: In Vitro Enzyme Assays, read-out: CDK2 IC50
PARAMETER MEASURED: IC50 (µM)

>>> df
                                   compound  lt_gt_eq  readout_value
0  COC1CCN(Cc2ccc(N/C=C3\C(=O)NC(=O)c4ccc(Br)cc43)cc2)CC1         >             50
1  O=C1NC(=O)c2ccc(I)cc2/C1=C/Nc1ccc(CN2CCOCC2)cc1         >             50
2  Cn1ccc(CN/C=C2\C(=O)NC(=O)c3ccc(I)cc32)cc1=O         =              1
3  O=C1NC(=O)c2ccc(Br)cc2/C1=C/NCc1ccc(O)c(O)c1O         =           18.5
4  CN1CCCC1c1ccc(NC=C2C(=O)NC(=O)c3ccc(I)cc32)cc1 (centres unmarked)         =           17.9

###

SYSTEM NAME: cyclin B/CDK1 enzyme (Homo sapiens, UniProt P06493)
Construct: purchased New England BioLabs; host or cells: Sf9 insect cells, recombinant baculovirus
Sequence (P06493 whole entry): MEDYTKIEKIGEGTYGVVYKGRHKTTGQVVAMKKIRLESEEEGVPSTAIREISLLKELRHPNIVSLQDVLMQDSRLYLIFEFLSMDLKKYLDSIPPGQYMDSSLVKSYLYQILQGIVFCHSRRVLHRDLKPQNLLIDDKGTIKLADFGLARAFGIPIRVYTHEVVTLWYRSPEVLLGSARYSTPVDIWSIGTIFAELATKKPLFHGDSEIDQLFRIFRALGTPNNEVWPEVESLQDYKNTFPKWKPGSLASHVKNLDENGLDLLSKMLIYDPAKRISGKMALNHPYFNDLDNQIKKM
Sequence (P14635 whole entry partner): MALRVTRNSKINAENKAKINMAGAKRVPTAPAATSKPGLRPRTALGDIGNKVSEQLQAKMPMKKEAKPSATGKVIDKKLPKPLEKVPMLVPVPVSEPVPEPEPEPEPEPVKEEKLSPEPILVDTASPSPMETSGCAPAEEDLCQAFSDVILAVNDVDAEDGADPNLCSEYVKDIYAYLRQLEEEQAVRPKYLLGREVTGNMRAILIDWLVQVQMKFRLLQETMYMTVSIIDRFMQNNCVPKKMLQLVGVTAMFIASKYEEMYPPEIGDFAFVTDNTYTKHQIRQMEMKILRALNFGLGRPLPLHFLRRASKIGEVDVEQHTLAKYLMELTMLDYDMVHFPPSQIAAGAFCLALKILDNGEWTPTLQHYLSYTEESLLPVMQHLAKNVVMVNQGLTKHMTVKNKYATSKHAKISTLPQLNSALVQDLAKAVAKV
ASSAY PROCEDURE: CDK1 ELISA kinase assay (phospho-Rb ser 795 detection)
Type: biochemical
EXPERIMENTAL CONTEXT: In Vitro Enzyme Assays, read-out: CDK1 IC50
Below, each entry is listed with its recorded IC50.
PARAMETER MEASURED: IC50

                                    molecule  parameter_measured  readout_value
 0  C[C@@H]1CN(c2ccc(N/C=C3\C(=O)NC(=O)c4ccc(Br)cc43)cc2C(F)(F)F)C[C@H](C)N1 [Example 372]                IC50        > 50 µM
 1  CN1CCC(c2ccc(N/C=C3\C(=O)NC(=O)c4ccc(-c5ccsc5)cc43)cc2)CC1 [Example 327]                IC50        > 50 µM
 2  CN(C)C/C=C/C(=O)Nc1ccc(CN/C=C2\C(=O)NC(=O)c3ccc(I)cc32)cc1O [Example 359]                IC50         1.5 µM
 3  O=C1NC(=O)c2ccc(Br)cc2/C1=C/Nc1ccc(CN2CCC(O)CC2)cc1 [compound 75]                IC50        > 50 µM
 4  O=C1NC(=O)c2ccc(Br)cc2/C1=C/Nc1ccc(N2CCC(N3CCCC3)CC2)c(F)c1 [Example 405]                IC50        > 50 µM
 5  CC1CN(c2ccc(N/C=C3\C(=O)NC(=O)c4ccc(Br)cc43)cc2)CC(C)N1 (stereo not drawn) [Example 201]                IC50        > 50 µM
 6  CN1CCN(c2ccc(N/C=C3\C(=O)NC(=O)c4ccc(-c5ccc(-c6cccs6)s5)cc43)cc2)CC1 [Example 182]                IC50         2.3 µM
 7  CC1CN(C)[C@H](C)CN1c1ccc(N/C=C2\C(=O)NC(=O)c3ccc(Br)cc32)cc1 (stereo in doubt) [Example 238]                IC50        > 50 µM
 8  Nc1cnc(CN/C=C2\C(=O)NC(=O)c3ccc(I)cc32)cc1O [Example 424]                IC50         6.3 µM
 9  COC1CCN(Cc2ccc(N/C=C3\C(=O)NC(=O)c4ccc(-c5ccc(F)cc5)cc43)cc2)CC1 [Example 395]                IC50        > 50 µM
10  COc1cc(CN/C=C2\C(=O)NC(=O)c3ccc(-c4ccccc4)cc32)cc(O)c1OC [Example 86]                IC50        > 50 µM
11  CC(C)C(=O)Nc1ccc(CN/C=C2\C(=O)NC(=O)c3ccc(I)cc32)cc1O [Example 335]                IC50        > 50 µM

###

Counter-ions that a name gives are not always drawn.
# melting point annotations
PARAMETER MEASURED: melting point

In [3]: df
Out[3]:
                                    molecule         readout_value
 0  O=C1NC(=O)c2ccc(Br)cc2/C1=C/NCc1ccc(OCC2CC2)c(O)c1         210 to 211 °C
 1  O=C(O)CCCN/C=C1\C(=O)NC(=O)c2ccc(Br)cc21  260 to 262 °C (dec.)
 2  CN1CCN(c2ccc(N/C=C3\C(=O)NC(=O)c4ccc(-c5ccoc5)cc43)cc2F)CC1         203 to 204 °C
 3  CN1CCN(CCCNC=C2C(=O)NC(=O)c3ccc(-n4cccc4)cc32)CC1 (as salt: TFA)         207 to 210 °C
 4  COc1ccc2c(c1)/C(=C/NCc1ccc(OC)c(O)c1)C(=O)NC2=O  240 to 242 °C (dec.)
 5  C[C@@H]1CN(c2ccc(N/C=C3\C(=O)NC(=O)c4ccc(-c5ccoc5)cc43)cc2)C[C@H](C)N1 (as salt: sodium)         199 to 200 °C
 6  CC1CCCN1Cc1ccc(N/C=C2\C(=O)NC(=O)c3ccc(-c4ccc(F)cc4)cc32)cc1 (stereo not shown)         165 to 166 °C
 7  O=C1NC(=O)c2ccc(-c3ccsc3)cc2/C1=C/Nc1ccc(N2CCN3CCC[C@H]3C2)c(F)c1         208 to 209 °C
 8   COc1ccc(N/C=C2\C(=O)NC(=O)c3ccccc32)cc1         150 to 151 °C
 9  O=C1NC(=O)c2ccc(Br)cc2/C1=C/NCc1ccc(Cl)cc1         234 to 235 °C
10  O=C1NC(=O)c2ccc(-c3ccc(F)cc3)cc2/C1=C/Nc1ccc(CN2CCC(CCO)CC2)cc1         202 to 203 °C
11  COC[C@H]1CCCN1Cc1ccc(N/C=C2\C(=O)NC(=O)c3ccc(-c4ccoc4)cc32)cc1         130 to 131 °C
12  O=C1NC(=O)c2ccccc2/C1=C/Nc1ccc(CN2CCC(O)CC2)cc1         224 to 225 °C
13  CN1CCN(c2ccc(N/C=C3\C(=O)NC(=O)c4ccc(C#Cc5ccsc5)cc43)cc2)CC1         193 to 194 °C
14  C[C@@H]1CN(c2ccc(N/C=C3\C(=O)NC(=O)c4ccc(-c5ccoc5)cc43)cc2)C[C@H](C)N1C         204 to 205 °C
15  CO[C@H]1CCN(Cc2ccc(N/C=C3\C(=O)NC(=O)c4ccc(-c5ccc(F)cc5)cc43)cc2)C1         145 to 146 °C

###

# pIC50 annotations
SYSTEM NAME: cyclin E/CDK2 enzyme (Homo sapiens, UniProt P24941)
Construct: made in house; host or cells: Sf9 insect cells, recombinant baculovirus
ASSAY PROCEDURE: CDK2 ELISA kinase assay (phospho-Rb ser 795 detection)
Type: biochemical
EXPERIMENTAL CONTEXT: In Vitro Enzyme Assay, cyclin E/CDK2, read-out: CDK2 IC50
pIC50: −log10 of the molar value.
PARAMETER MEASURED: pIC50

>>> df
                                    molecule  lt_gt_eq  readout_value
 0  CCC(=O)Nc1cnc(CN/C=C2\C(=O)NC(=O)c3ccc(I)cc32)cc1O         =           6.72
 1  CC1CCCN1Cc1ccc(NC=C2C(=O)NC(=O)c3ccccc32)cc1 (stereo not shown)         =           4.67
 2  NS(=O)(=O)c1ccc(CNC=C2C(=O)NC(=O)c3ccc(-c4ccccc4F)cc32)cc1         =           5.43
 3  CCCOc1ccc(CN/C=C2\C(=O)NC(=O)c3ccc(-c4ccoc4)cc32)cc1O         <           4.30
 4  O=C1NC(=O)c2ccc(-c3ccc(OC(F)(F)F)cc3)cc2C1=CNCc1ccc(O)c(O)c1         =           4.52
 5  O=C1NC(=O)c2ccc(-c3ccco3)cc2/C1=C/NCc1ccc(-c2ccc(F)cc2)c(O)c1         =           4.53
 6  CN1CCN(c2ccc(N/C=C3\C(=O)NC(=O)c4ccc(-c5ccoc5)cc43)c(F)n2)CC1 [Example 498]         =           4.49
 7  CC(=O)Nc1cccc(-c2ccc3c(c2)C(=CNCc2ccc(O)c(O)c2)C(=O)NC3=O)c1         =           4.72
 8  O=C1NC(=O)c2ccc(N(CCC(F)(F)F)CCC(F)(F)F)cc2C1=CNCc1ccc(O)c(O)c1         =           4.74
 9  COc1ccc(CNC=C2C(=O)NC(=O)c3ccc(-c4ccc[nH]4)cc32)cc1O         =           4.81
10  CSc1ccc(-c2ccc3c(c2)C(=CNCc2ccc(O)c(O)c2)C(=O)NC3=O)cc1         =           4.65
11  O=C(O)CCc1ccc(-c2ccc3c(c2)C(=CNCc2ccc(O)c(O)c2)C(=O)NC3=O)cc1         =           4.57
12  O=C1NC(=O)c2ccc(-c3ccc[nH]3)cc2C1=CNc1ccc(CN2CCCC2)cc1         =           4.63
13  CN1CCN(c2ccc(N/C=C3\C(=O)NC(=O)c4ccc(-c5ccoc5)cc43)c(F)n2)CC1 [Example 457]         =           4.71
14  COc1ccc(CNC=C2C(=O)NC(=O)c3ccc(C=Cc4ccccn4)cc32)cc1O         <           4.30
15  O=C1NC(=O)c2ccc(C=Cc3ccncc3)cc2C1=CNCc1ccc(O)c(O)c1         =           5.20

Origin of values: patent US7713994B2
